Tested on: HCT-116
Assay: Cytotoxicity against human HCT-116 cells assessed as reduction in cell viability by CellTiter Glo luminescent assay
Format: functional, cell-based
pIC50: −log10 of the molar value.
Experimental readout: pIC50

C=C(CC)C(=O)c1ccc(OCC(=O)N2CCN(S(=O)(=O)c3ccc(OC)cc3)CC2)c(Cl)c1Cl    7.30
COc1cccc2c1C(=O)c1c(O)c3c(c(O)c1C2=O)C[C@@](O)(C(=O)CO)C[C@@H]3O[C@H]1C[C@H](N)[C@H](O)[C@H](C)O1 [DOXORUBICIN]    7.05
C=C(CC)C(=O)c1ccc(OCC(=O)NC2CCN(S(=O)(=O)c3cc(Cl)ccc3OC)CC2)c(Cl)c1Cl    6.10
C=C(CC)C(=O)c1ccc(OCC(=O)NC2CCN(S(=O)(=O)c3ccc(OC)cc3)CC2)c(Cl)c1Cl    5.94

----------
Below is a list of entries, each paired with its recorded selectivity ratio value.
Experiment: Selectivity index, ratio of IC50 for human MRC5 cells to IC50 for human U-87 MG cells by CellTiter Glo luminescent assay
Format: toxicity
Settings: MRC5 cells versus U-87 MG cells, read-out: Ratio IC50
Experimental readout: selectivity ratio

C=C(CC)C(=O)c1ccc(OCC(=O)N2CCN(S(=O)(=O)c3ccc(OC)cc3)CC2)c(Cl)c1Cl    0.48
C=C(CC)C(=O)c1ccc(OCC(=O)NC2CCN(S(=O)(=O)c3ccc(OC)cc3)CC2)c(Cl)c1Cl    18.1
C=C(CC)C(=O)c1ccc(OCC(=O)NC2CCN(S(=O)(=O)c3cc(Cl)ccc3OC)CC2)c(Cl)c1Cl    2.93

----------
Tested on: HCT-116
Assay: Cytotoxicity against human HCT-116 cells assessed as cell viability at 10 uM by CellTiter Glo luminescent assay relative to control
Type: functional
Details: read-out: Activity
Experimental readout: viability at 10 µM

C=C(CC)C(=O)c1ccc(OCC(=O)N2CCN(S(=O)(=O)c3ccc(OC)cc3OC)CC2)c(Cl)c1Cl    40%
C=C(CC)C(=O)c1ccc(OCC(=O)NCCNS(=O)(=O)c2ccc([N+](=O)[O-])cc2)c(Cl)c1Cl    59%
C=C(CC)C(=O)c1ccc(OCC(=O)NCCNS(=O)(=O)c2cc(Cl)ccc2OC)c(Cl)c1Cl    78%
C=C(CC)C(=O)c1ccc(OCC(=O)NC2CCN(S(=O)(=O)C3CCCCC3)CC2)c(Cl)c1Cl    61%
C=C(CC)C(=O)c1ccc(OCC(=O)NCCNS(=O)(=O)c2ccc(OC)cc2)c(Cl)c1Cl    97%
C=C(CC)C(=O)c1ccc(OCC(=O)NCCNS(=O)(=O)c2cccc3cccnc23)c(Cl)c1Cl    100%
C=C(CC)C(=O)c1ccc(OCC(=O)N2CCN(S(=O)(=O)c3ccc(C)cc3)CC2)c(Cl)c1Cl    100%
C=C(CC)C(=O)c1ccc(OCC(=O)N2CCN(S(C)(=O)=O)CC2)c(Cl)c1Cl    68%
C=C(CC)C(=O)c1ccc(OCC(=O)N2CCN(S(=O)(=O)c3ccc([N+](=O)[O-])cc3)CC2)c(Cl)c1Cl    100%
C=C(CC)C(=O)c1ccc(OCC(=O)NC2CCN(S(=O)(=O)c3ccc(OC)c(OC)c3)CC2)c(Cl)c1Cl    99%
C=C(CC)C(=O)c1ccc(OCC(=O)NCCNS(C)(=O)=O)c(Cl)c1Cl    62%
C=C(CC)C(=O)c1ccc(OCC(=O)NCCNS(=O)(=O)c2ccc(OC)cc2OC)c(Cl)c1Cl    77%
C=C(CC)C(=O)c1ccc(OCC(=O)NC2CCN(S(=O)(=O)c3ccc([N+](=O)[O-])cc3)CC2)c(Cl)c1Cl    100%
C=C(CC)C(=O)c1ccc(OCC(=O)NC2CCN(S(C)(=O)=O)CC2)c(Cl)c1Cl    73%
C=C(CC)C(=O)c1ccc(OCC(=O)NCCNS(=O)(=O)c2ccc(OC)c(OC)c2)c(Cl)c1Cl    97%
C=C(CC)C(=O)c1ccc(OCC(=O)N2CCN(S(=O)(=O)c3ccc(OC)cc3)CC2)c(Cl)c1Cl    21%
C=C(CC)C(=O)c1ccc(OCC(=O)N2CCN(S(=O)(=O)C3CCCCC3)CC2)c(Cl)c1Cl    100%
